Target: T1, human BCMA on cells (human, UniProt Q02223 1-184)
T1 construct: also called hBCMA; BCMA on NCI-H929, ARP-1, OPM-2, U266B1, MM.1S, RPMI-8226 cells
T1 sequence: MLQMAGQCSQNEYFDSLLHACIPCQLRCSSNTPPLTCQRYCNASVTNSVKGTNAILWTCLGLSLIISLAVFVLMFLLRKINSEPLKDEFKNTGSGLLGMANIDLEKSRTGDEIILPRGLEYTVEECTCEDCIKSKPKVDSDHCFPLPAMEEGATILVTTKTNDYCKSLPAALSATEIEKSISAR
Assay: FACS, NCI-H929 cells
assay.endpoint: pKd
Entry type: numeric. Quantity: pKd, the -log10 of concentration in molar units.

Query: pKd; subject: 9H1 (antibody, V domains shown, Chicken HybriFree-derived antibody; also called Antibody 44) VH: AVTLDESGGGLQTPGGALSLVCKGSGFTFSDYGMGWMRQAPGKGLQYVARINSAGSDTNYGSAVKGRATISRDDGQSTVRLQLSSLRAEDTGIYYCTRGGGGASIDGWGHGTEVIVSS VL: ALTQPSSVSANPGETVKITCSGGGSYYGSYYYGWYQQKSPGSAPVTLIYNNNNRPSDIPSRFSGSTSGSTGTLTITGVRAEDEAVYYCGSFDSSTDAIFGAGTTLTVL
9.00

Data request, read-out pKd, for 10E10 (antibody, V domains shown, Chicken HybriFree-derived antibody; also called Antibody 46) VH: AVTLDESGGGLQTPGGGLSLVCKASGFTFSSYGMGWMRQAPGKGLEFVARINSGGSSYTDYGSAVKGRATISRDDGQSTVRLQLNNLRAEDTGIYYCTRGGGGASIDGWGHGTEVIVSS VL: ALTQPSSVSANPGETVKITCSGGGNYAGSYYYGWYQQKSPGSAPLTVIYNSNNRPSDIPSRFSGSLSGSTGTLTITGVRAEDEAVYFCGGFDSSTDAIFGAGTTLTVL
8.33

Look at this binder and give its reported pKd. 9A5 (antibody, V domains shown, Chicken HybriFree-derived antibody; also called Antibody 42) VH: AVTLDESGGGLQTPGGAVSLVCKASGFSISDYGMGWMRQAPGKGLQYVARIDHDGRYTDYGAVVKGRATISRDNGQSTVRLQLNNLRAEDTGTYYCTRGGGAASIDTWGHGTEVIVSS VL: ALTQPSSVSANPGETVKITCSGGGNYVGGYYYGWYQQKAPGSALVTLIYNNNNRPSNIPSRFSGSTSGSTSTLTITGVRAEDEAVYFCGSFDSSTDAIFGAGTTLTVL
9.00
